Data credit: patent US20030232742A1

target: FAP (Homo sapiens)
Construct: Cell extract from 293 cells stably transfected with FAP prepared as described; expressed in transfected cells; detergent extract used
Sequence (Q12884 1-760): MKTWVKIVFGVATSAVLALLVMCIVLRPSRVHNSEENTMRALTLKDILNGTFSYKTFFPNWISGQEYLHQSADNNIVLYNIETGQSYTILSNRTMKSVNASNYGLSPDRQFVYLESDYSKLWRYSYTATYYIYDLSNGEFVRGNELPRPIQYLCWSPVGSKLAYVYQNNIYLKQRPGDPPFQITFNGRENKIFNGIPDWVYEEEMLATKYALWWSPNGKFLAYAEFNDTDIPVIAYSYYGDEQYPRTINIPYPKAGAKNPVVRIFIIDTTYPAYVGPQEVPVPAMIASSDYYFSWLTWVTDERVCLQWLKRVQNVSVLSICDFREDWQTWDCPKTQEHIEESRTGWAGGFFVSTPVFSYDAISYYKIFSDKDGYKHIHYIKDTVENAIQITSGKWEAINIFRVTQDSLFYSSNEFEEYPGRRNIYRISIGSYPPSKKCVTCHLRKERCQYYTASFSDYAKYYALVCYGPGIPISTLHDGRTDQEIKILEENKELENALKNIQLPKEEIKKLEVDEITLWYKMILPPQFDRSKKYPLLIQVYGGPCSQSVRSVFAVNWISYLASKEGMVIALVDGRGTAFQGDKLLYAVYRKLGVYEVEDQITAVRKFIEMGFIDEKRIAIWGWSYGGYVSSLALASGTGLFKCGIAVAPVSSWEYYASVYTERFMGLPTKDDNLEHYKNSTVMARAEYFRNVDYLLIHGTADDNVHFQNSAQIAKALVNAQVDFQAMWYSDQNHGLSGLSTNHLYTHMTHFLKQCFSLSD
procedure-details: Assay for cleavage of MNA substrates by FAP
Assay type: biochemical
conditions-used: 1 ng FAP enzyme in 293 cell extract, 20 μl 2.5 mM substrate (a few diluted further), room temperature 1 hour, control 293 extract subtracted
The star is where a group is joined. morpholino‑(ethyloxycarbonyl) = morpholino-(ethyloxycarbonyl) N-terminal blocking group, O=C(OCCN1CCOCC1)*; NH(4-MeO-2-naphthyl) = COc1cc(N*)cc2ccccc12
Decision: Cleavage >= 3 µM yields 1.0, all other cases yield 0.0.

Previously resolved entries follow.
Morpholino-(ethyloxycarbonyl)-Pro-Ala-Gly-Pro-MNA ({morpholino‑(ethyloxycarbonyl)}-PAGP-{NH(4-MeO-2-naphthyl)}; SMILES COc1cc(NC(=O)[C@@H]2CCCN2C(=O)CNC(=O)[C@H](C)NC(=O)[C@@H]2CCCN2C(=O)OCCN2CCOCC2)cc2ccccc12) | 1.0
4-Aminomethylphenylacetyl-Pro-Ala-Gly-Pro-MNA ({4‑aminomethylphenylacetyl}-PAGP-{NH(4-MeO-2-naphthyl)}) | 0.0
Malonyl-Pro-Ala-Gly-Pro-MNA (malonyl-PAGP-{NH(4-MeO-2-naphthyl)}) | 0.0
Pyrid-3-ylmethyloxycarbonyl-2-Aze-Ala-Gly-Pro-MNA | 1.0

Attention now turns to another entry.
Query: Quick check: does Prazin-2-ylcarbonyl-Pro-Ala-Gly-Pro-MNA ({pyrazin‑2‑ylcarbonyl}-PAGP-{NH(4-MeO-2-naphthyl)}) have Cleavage greater than or equal to 3 µM?
Response: 0.0

* * *

// Cleavage lookup, one value per entry
target: FAP (Homo sapiens)
Construct: Cell extract from 293 cells stably transfected with FAP prepared as described; expressed in transfected cells; detergent extract used
Sequence (Q12884 1-760): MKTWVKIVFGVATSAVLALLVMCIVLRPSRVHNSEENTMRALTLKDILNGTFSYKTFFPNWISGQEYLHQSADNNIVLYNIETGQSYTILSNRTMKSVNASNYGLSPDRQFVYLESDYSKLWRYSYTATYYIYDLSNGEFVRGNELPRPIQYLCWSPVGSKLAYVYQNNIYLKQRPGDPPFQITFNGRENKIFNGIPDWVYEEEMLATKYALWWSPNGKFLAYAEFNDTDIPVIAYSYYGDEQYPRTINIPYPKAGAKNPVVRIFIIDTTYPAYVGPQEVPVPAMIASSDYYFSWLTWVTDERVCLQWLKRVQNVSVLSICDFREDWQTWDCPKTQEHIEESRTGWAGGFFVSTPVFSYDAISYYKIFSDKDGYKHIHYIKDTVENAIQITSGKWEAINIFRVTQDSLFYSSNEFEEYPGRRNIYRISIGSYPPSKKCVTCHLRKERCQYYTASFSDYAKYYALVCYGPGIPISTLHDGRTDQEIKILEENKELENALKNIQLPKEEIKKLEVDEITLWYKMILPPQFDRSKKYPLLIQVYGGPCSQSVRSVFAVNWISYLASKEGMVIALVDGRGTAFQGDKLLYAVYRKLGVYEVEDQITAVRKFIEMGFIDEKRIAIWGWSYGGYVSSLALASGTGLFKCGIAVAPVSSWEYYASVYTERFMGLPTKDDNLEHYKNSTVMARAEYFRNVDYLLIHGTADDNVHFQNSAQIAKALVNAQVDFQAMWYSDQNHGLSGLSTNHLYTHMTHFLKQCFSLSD
procedure-details: Assay for cleavage of MNA substrates by FAP
Assay type: biochemical
conditions-used: 1 ng FAP enzyme in 293 cell extract, 20 μl 2.5 mM substrate (a few diluted further), room temperature 1 hour, control 293 extract subtracted
Excerpt: To identify preferred FAPα peptide substrates, blocked oligopeptides composed of natural amino carboxylic acids were synthesized and coupled to Proline-4-methoxy-β-napthylamine (Pro-MNA) using methods known to the art (E. Wünsch, Synthese von Peptiden, in Methoden der organischen Chemie, Houben-Weyl (Eds. E. Müller, 0. Bayer), Vol. XV, Part 1 and 2, Georg Thieme Verlag, Stuttgart, 1974). The turnover and cleavage rate have been determined with the aid pf the following assay: […]
The star is where a group is joined. NH(4-MeO-2-naphthyl) = COc1cc(N*)cc2ccccc12
Please respond with the number in µM and leave the unit unwritten.

2-Morpholino-ethyl-Pro-Ala-Gly-Pro-MNA ({2‑morpholino‑ethyl}-PAGP-{NH(4-MeO-2-naphthyl)}) | 0.64
1-Methylpyrrol-2-ylcarbonyl Pro-Ala-Gly-Pro-MNA ({1‑methylpyrrol‑2‑ylcarbonyl}-PAGP-{NH(4-MeO-2-naphthyl)}) | 0.33

Continue with the next substance.
Query: Please look at this substance and report its Cleavage: 4-Pyridylmethyloxycarbonyl-Pro-Ala-Gly-Pro-MNA ({4‑pyridylmethyloxycarbonyl}-PAGP-{NH(4-MeO-2-naphthyl)})
Response: 6.38

* * *

% Turnover values for the substances below.
target: FAP (Homo sapiens)
Construct: Cell extract from 293 cells stably transfected with FAP prepared as described; expressed in transfected cells; detergent extract used
procedure-details: Assay for cleavage of MNA substrates by FAP
Format: biochemical
conditions-used: 1 ng FAP enzyme in 293 cell extract, 20 μl 2.5 mM substrate (a few diluted further), room temperature 1 hour, control 293 extract subtracted
*1 amine or outer side, *2 acyl side, *3 side chain or, on linkers, in order; H or OH if unused. Where no end group is shown, it is not given here. [ ]: non-standard residue; d: D form. The star is where a group is joined. morpholino‑(ethyloxycarbonyl) = morpholino-(ethyloxycarbonyl) N-terminal blocking group, O=C(OCCN1CCOCC1)*; NH(4-MeO-2-naphthyl) = COc1cc(N*)cc2ccccc12; Glutaryl = O=C(CCCC(=O)[*:2])[*:1]; Suc = O=C(CCC(=O)[*:2])[*:1]; 4Amb = NCc1ccc(C(=O)O)cc1; NMeA = CN[C@@H](C)C(=O)O
# output: bare number, implied unit %

Below are worked cases with known answers.
Pyrid-3-ylmethyloxycarbonyl-Pip-Ala-Gly-Pro-MNA | 0.56
Prazin-2-ylcarbonyl-Pro-Ala-Gly-Pro-MNA ({pyrazin‑2‑ylcarbonyl}-PAGP-{NH(4-MeO-2-naphthyl)}) | 0.56
Malonyl-Pro-Ala-Gly-Pro-MNA (malonyl-PAGP-{NH(4-MeO-2-naphthyl)}) | 0.21
2-Morpholino-ethyl-Pro-Ala-Gly-Pro-MNA ({2‑morpholino‑ethyl}-PAGP-{NH(4-MeO-2-naphthyl)}) | 0.26
4-Aminomethylbenzoyl-Pro-Ala-Gly-Pro-MNA ([4Amb]PAGP-{NH(4-MeO-2-naphthyl)}) | 0.24
Succinyl-Pro-Ala-Gly-Pro-MNA (Suc-PAGP-{NH(4-MeO-2-naphthyl)}; SMILES COc1cc(NC(=O)[C@@H]2CCCN2C(=O)CNC(=O)[C@H](C)NC(=O)[C@@H]2CCCN2C(=O)CCC(=O)O)cc2ccccc12) | 0.29
4-Pyridylmethyloxycarbonyl-Pro-Ala-Gly-Pro-MNA ({4‑pyridylmethyloxycarbonyl}-PAGP-{NH(4-MeO-2-naphthyl)}) | 1.28
4-Dimethylaminobenzoyl-Pro-Ala-Gly-Pro-MNA ({4‑dimethylaminobenzoyl}-PAGP-{NH(4-MeO-2-naphthyl)}) | 0.37
Pyrid-4-ylmethyloxycarbonyl-Pip-Ala-Gly-Pro-MNA | 0.43
4-(2-Aminothiazol-5-yl)-acetyl-Pro-Ala-Gly-Pro-MNA ({(2-aminothiazol-5-yl)‑acetyl}-PAGP-{NH(4-MeO-2-naphthyl)}) | 0.39

Query: Tell me measured % Turnover for Morpholino-(ethyloxycarbonyl)-Pro-Ala-Gly-Pro-MNA ({morpholino‑(ethyloxycarbonyl)}-PAGP-{NH(4-MeO-2-naphthyl)}; SMILES COc1cc(NC(=O)[C@@H]2CCCN2C(=O)CNC(=O)[C@H](C)NC(=O)[C@@H]2CCCN2C(=O)OCCN2CCOCC2)cc2ccccc12) please.
Response: 0.65

Query: Indicate its recorded % Turnover; the substance in question is Morpholino-carbonyl-Pro-Ala-Gly-Pro-MNA ({morpholino‑carbonyl}-PAGP-{NH(4-MeO-2-naphthyl)})
Response: 0.6

Query: Using known records, supply % Turnover for Glutaryl-Pro-Ala-Gly-Pro-MNA (Glutaryl-PAGP-{NH(4-MeO-2-naphthyl)}; SMILES COc1cc(NC(=O)[C@@H]2CCCN2C(=O)CNC(=O)[C@H](C)NC(=O)[C@@H]2CCCN2C(=O)CCCC(=O)O)cc2ccccc12)
Response: 0.3

Query: Return % Turnover (reported value) for this substance: 4-Hydroxyphenylacetyl-Pro-Ala-Gly-Pro-MNA ({4‑hydroxyphenylacetyl}-PAGP-{NH(4-MeO-2-naphthyl)})
Response: 0.69

Query: Assign % Turnover to the following record: 1-Methylpyrrol-2-ylcarbonyl Pro-Ala-Gly-Pro-MNA ({1‑methylpyrrol‑2‑ylcarbonyl}-PAGP-{NH(4-MeO-2-naphthyl)})
Response: 0.13

Query: Specify % Turnover for Pyrid-3-ylmethyloxycarbonyl-2-Aze-Ala-Gly-Pro-MNA and stop.
Response: 3.42

Query: Complete the entry with % Turnover for Pyridin-3-ylmethoxycarbonyl-Pro-Ala-Gly-Pro-MNA ({pyridin‑3‑ylmethoxycarbonyl}-PAGP-{NH(4-MeO-2-naphthyl)})
Response: 1.77

Query: Look up and state reported % Turnover for 4-Aminomethylphenylacetyl-Pro-Ala-Gly-Pro-MNA ({4‑aminomethylphenylacetyl}-PAGP-{NH(4-MeO-2-naphthyl)})
Response: 0.26

Query: Identify % Turnover associated with the substance 3-Carboxyphenylsulfonyl-Pro-Ala-Gly-Pro-MNA ({3‑carboxyphenylsulfonyl}-PAGP-{NH(4-MeO-2-naphthyl)})
Response: 0.58

Query: Determine from records and report % Turnover for Pyrid-3-ylmethyloxycarbonyl-MeAla-Ala-Gly-Pro-MNA ({pyrid‑3‑ylmethyloxycarbonyl}-[NMeA]AGP-{NH(4-MeO-2-naphthyl)}) [MeAla represents a N-methylalanin moiety]
Response: 1.27

Query: Please give the documented % Turnover of Pyrid-4-ylmethyloxycarbonyl-2-Aze-Ala-Gly-Pro-MNA
Response: 1.61
